Tested on: SF-295 CNS
test-method-notes: NCI tumour cell line growth inhibition, 48 h; in the data active = GI50 below about 0.43 µM; inactive = the rest
Your answer must be one of the following: 1 for active, 0 for inactive

Input: For Nc1ncnc2occ(-c3ccc(NC(=O)Nc4cc(C(F)(F)F)cc(C(F)(F)F)c4)cc3)c12 , what call appears in the results of this test?
Output: 0

Input: Entry Cc1nnc([S-])s1.[Au+].c1ccc([PH+](c2ccccc2)c2ccccc2)cc1 : call = ?
Output: 0

Input: Record request — test call for C/C(=C(/c1ccc(O)cc1)c1ccc(OCCN2CCCC2)cc1)c1ccccc1
Output: 0

Input: Call for entry COc1cccc(-c2nn(-c3ccccc3)cc2-c2ccnc(NCCNC(=O)Nc3ccc(Cl)c(Cl)c3)c2)c1 :
Output: 0

Input: Hello, I am checking results. What call was entered for O=C1c2c(O)cccc2C(C(=O)CCCCC(=O)C2c3cccc(O)c3C(=O)c3c(O)cccc32)c2cccc(O)c21 ?
Output: 0

Input: Which outcome was assigned to COc1cc2c3c(n(CCCNCCO)c(=O)c2cc1OC)-c1cc2c(cc1C3=O)OCO2 in this test?
Output: 1

Input: Write down the call the test reported for this compound. Item: CC(C)OP(=O)(OC(C)C)C(N(C)C)P(=O)(OC(C)C)OC(C)C.[Cl][Sn]([Cl])([Cl])[c]1ccccc1
Output: 0

Input: Please state the recorded outcome for this compound: O=C(N[C@@H]1CCCc2ccccc21)[C@H](CCC(=O)N1CCN(C2CCCCC2)CC1)N1C(=O)[C@@H](N2C(=O)OC[C@@H]2c2ccccc2)[C@H]1/C=C/c1ccccc1
Output: 0

Input: Query: recorded result category for COc1ccccc1Cn1cc2c(c1)-c1oncc1CC2 in this test
Output: 1

Input: # outcome recorded in this test, key = COC(=O)c1cc(Nc2ccc(O)c3c2C(=O)c2c([N+](=O)[O-])ccc(O)c2C3=O)cc(C(=O)OC)c1
Output: 0

Input: Fill in: this test's call for Cc1ccc(C2=Nc3c(N)ncnc3NC(c3cccc(Nc4ccnc5cc(C(F)(F)F)ccc45)c3)C2)cc1 (stereo not given) is ___
Output: 0

Input: What outcome does the record of this test show for Cc1ccc([P+](Cc2ccc([N+](=O)[O-])cc2)(c2ccc(C)cc2)c2ccc(C)cc2)cc1 ?
Output: 0

Input: Give the logged outcome of this assay for the following compound: O=C1OC(c2ccc(O)cc2)(c2ccc(O)cc2)c2cccc3cccc1c23
Output: 0

Input: I would be grateful if you could indicate the recorded call for CCN(CC)CCC(=O)Nc1ccc(Cn2nnc3c2C(=O)c2nnn(Cc4ccc(NC(=O)CCN(CC)CC)cc4)c2C3=O)cc1 .
Output: 0

Input: Just curious, what result did CC(C)OP(=O)(CP(=O)(OC(C)C)OC(C)C)OC(C)C.[CH3][Sn]([Br])([Br])[Br] get here?
Output: 0
